# ASSAY DETAILS: Solubility of the compound in MeOH
# Type: physicochemical
READOUT LABEL: solubility

Worked examples follow.
>>> print(df.to_string())
                        structure_as_smiles  readout_label        val
0  CN(C)c1ccc(C(=O)N/N=C/c2c(Cl)c3ccccc3oc2=O)cc1     solubility  Insoluble
1    O=C(N/N=C/c1c(Cl)c2ccccc2oc1=O)c1ccco1     solubility  Insoluble
2  COc1ccc(C(=O)N/N=C/c2c(Cl)c3ccccc3oc2=O)cc1     solubility  Insoluble
3  CN(C)c1ccc(C(=O)n2cc3c(=O)oc4ccccc4c3n2)cc1     solubility  Insoluble
4  O=C(N/N=C/c1c(Cl)c2ccccc2oc1=O)c1ccc(Cl)cc1     solubility  Insoluble

// batch mode: one solubility value per listed entry
1. O=C(c1ccc(O)cc1O)n1cc2c(=O)oc3ccccc3c2n1
2. COc1ccc(C(=O)n2cc3c(=O)oc4ccccc4c3n2)cc1

output:
1: Insoluble; 2: Insoluble

Values compiled from ChEMBL document CHEMBL4033694.
